Attribution: a melting point compilation (Tetko et al.; mined from patent text by program, amines drawn as free bases though some values may be those of a salt)

Exercise: for every item that follows, state its recorded melting point.

Entry O=c1cc(-c2ccccc2)sc2c1[nH]c1ccccc12 — recorded melting point = 271 to 272 °C

The molecule CN(C(=O)Nc1ccccc1CCc1cc(C(C)(C)C)c(O)c(C(C)(C)C)c1)C1CCN(Cc2ccc(F)cc2)CC1 showed melting point equal to 177 to 178 °C

// sample O=C(Nc1nccs1)C(CC1CCCC1)c1cccc(S(=O)(=O)C(F)(F)F)c1 (centres undefined) , its melting point was 61 to 64 °C

# melting point of Oc1cc(C(F)(F)F)nn1-c1ccc(Cl)cn1 = 58 to 59 °C

The molecule O=C1C(=Cc2ccc(O)c(CO)c2)Cc2ccccc21 showed melting point equal to 194 to 195 °C

The measured melting point associated with Cc1cc(=O)n(-c2cc(OC(C)C)c(Cl)cc2F)c(=O)n1C reads 149 to 151 °C

The molecule listed as CNC(=O)N1CCc2cc(S(=O)(=O)N(C)OC)ccc21 shows melting point equal to 152 °C

Looking up COc1ccc(-c2cc(-c3ccccc3)[nH]c2C(=O)NCc2ccc(C(=O)Nc3ncccn3)cc2)cc1 , I found its melting point recorded as 190 to 191 °C

melting point for COc1ccc(C[C@@H](NC(=O)CCCc2ccccc2)[C@@H](O)c2ccc(F)cc2)cc1 (racemic) is 130 to 131 °C

Recorded melting point (molecule CCOC(=O)C1=C(C)Nc2ncn(C(C)C)c(=O)c2C1c1ccccc1F (centres undefined) ): 178 to 180 °C

Form field melting point, entry COc1cc(OC(C)(C)C(=O)O)c(C=CC(=O)c2ccc(C(=O)O)cc2)cc1-c1cccs1 : 223 to 225 °C

For record Brc1ccc2noc(-c3ccccc3)c2c1 the listed melting point is 113 to 116 °C

Quick note, melting point for CC(C)(CCl)C(=O)N(O)c1ccccc1 landed at 120 to 121 °C

In plain terms, O=C1c2ccccc2C(=O)N1CC(=O)N1c2ccccc2N(Cc2ccccn2)C(=O)[C@H]2CCC[C@H]21 (relative stereo) has a documented melting point of 227 to 229 °C

The molecule identified as CC1Nc2ccc(NC(=O)c3ccc(C(=NN)C(=O)OCc4ccccc4)cc3)cc2CN(CCc2ccccc2)C1=O (centres undefined) registered its melting point at 120 °C

Value of melting point reported for the molecule N#Cc1cc2[nH]c(=O)c3n[nH]c(=O)n3c2cc1-n1ccnc1 is > 300 °C

GET /value?item= Cc1ccc(C)n1-c1cc(Br)c2ccc3[nH]c(=O)c(=O)[nH]c3c2c1 &field=melting point returns > 270 °C

melting point recorded for this molecule, O=C1NC(O)c2cc(Br)ccc21 (centres undefined) , is 258 to 261 °C

response.value for CCOC(=O)C1=C(C)N(Cc2ccccc2)C(C)=C(C(=O)OCC)C1c1ccc(Br)cc1 (field: melting point) = 168 to 169 °C

// field: melting point; key: Nc1ccnc2c(F)cccc12 ; value = 184 to 186 °C

The measured melting point associated with Cc1[nH]c(Cl)c(C#N)c1SC#N reads 171 °C

The molecule identified as CC(C)c1cc(Cl)cc(C(C)C)c1NC(=O)NS(=O)(=O)c1cccc(S(N)(=O)=O)c1 registered its melting point at 172 to 177 °C

The reported melting point of the molecule CCCCc1nn(-c2cc(NC(=O)CC)ccc2Br)c(=O)n1Cc1ccc(-c2ccccc2S(=O)(=O)NC(C)(C)C)cc1F was 119 to 121 °C

Field melting point (entry COc1ccc2c(-c3cc(F)ccc3F)noc2c1 ) reads 121 to 122 °C

The molecule C#CC1(O)C(CO)OC(n2ccc(N)nc2=O)C1O (centres undefined) showed melting point equal to 233 to 235 °C

The molecule listed as O=[N+]([O-])c1cccc(-c2cc3ncnc(Nc4ccc5[nH]ccc5c4)c3s2)c1 has a reported melting point of 175 to 183 °C

melting point recorded for this molecule, CCOc1ccc(C(=O)NCc2ccc3c(c2)C(=O)N(C2CCC(=O)NC2=O)C3=O)nn1 (centres undefined) , is 238 to 240 °C

Entry CCC12CCC3C4CCC(=O)C=C4CC(C)C3C1CCC2O (centres undefined) ; melting point = 152 to 154 °C

// melting point lookup, molecule = CCCCCc1ccc(OCC(=O)O)c(CCCCC)c1 , result: 115 to 120 °C

CC(=O)OCCc1c(C2=CCC(c3ccccc3)(N(C)C)CC2)[nH]c2ccccc12 (centres undefined) yielded melting point of 146 to 148 °C

So, COc1ccc(S(=O)(=O)NCC2CCN(C[C@H]3COc4ccc(Cl)cc4O3)CC2)cc1OC ? Its melting point was 99 to 101 °C

melting point recorded for this molecule, CCOC(=O)Cc1nn(C/C=C/c2cccc(C(F)(F)F)c2F)c(=O)c2ccccc12 , is 104 to 106 °C

Form: molecule = COC(=O)c1cccc(CNC(=O)C2CC2)c1C(=O)OC ; melting point = 240 to 242 °C

Consider CC(C)(C)C(NC(=O)c1cc(Cl)cc(Cl)c1)Nc1c(Nc2cncc(C(F)(F)F)c2)c(=O)c1=O (centres undefined) . Its measured melting point is 233 to 234 °C

---

property-measured: melting point

response.value for CCCCOC(=O)c1cc(OC)c(Cc2cnc(N)nc2N)c(OC)c1 (field: melting point) = 186 to 188 °C

Reported melting point of CCCCOC(=O)C(NC(=O)c1cc([N+](=O)[O-])cc([N+](=O)[O-])c1)C(C)C (configuration not stated) : 88 to 91 °C

// melting point value for O=C(Nc1n[nH]c(=S)s1)NC(Cc1ccccc1)C(=O)NCc1ccccn1 (configuration not stated) : 159 to 161 °C

Field melting point (entry COc1ccc2c(c1)c(-c1cc3c(C(=O)NC(C)(C)CO)ccnc3[nH]1)cn2C ) reads 210 to 212 °C

Measured melting point of CSc1c(CC(C)(C)C(=O)O)n(Cc2ccc(Cl)cc2)c2ccc(F)cc12 : 161 to 163 °C

melting point in this record for CC(C)CNC1=NS(=O)(=O)c2sc(Cl)cc2N1 : 262 to 264 °C

Value of measured melting point for the entry COC(=O)CCCCCNC(=O)c1cccc(OC)c1O : 69 to 70 °C

melting point reported for this compound CC(C)COc1ccc(-c2nc3c(C(=O)O)cccc3[nH]2)cc1C#N : 299 to 302 °C

For record CCOC(=O)C(C#N)C1CC(C)(C)NC(C)(C)C1 (configuration not stated) the listed melting point is 116 to 117 °C

The compound listed as O=c1c(Cl)c(OCc2ccc(Cl)cc2Cl)cnn1-c1ccc(Cl)cc1 shows melting point equal to 168 to 169 °C

Entry under test: CCSc1ccc(C(=O)NCc2ccc3c(c2)C(=O)N(C2(C)CCC(=O)NC2=O)C3=O)nn1 (configuration not stated) . Its melting point was 160 to 162 °C

The compound identified as CC(C)(C)c1ccc2c(c1)-c1c(c(C(=O)C(C#N)C(=O)NCc3ccccc3)nn1-c1ccccc1)CO2 (configuration not stated) registered its melting point at 281 to 284 °C

Sure, the documented melting point for CC(C)Cc1nc2sc3c(NCc4cccnc4)ncnc3c2c2c1COC(C)(C)C2 is 244 to 245 °C

Consider NC(=O)c1ncn2c1[C@@H]1CCCN1C(=O)c1cc(F)ccc1-2 . Its measured melting point is 239 to 240 °C

Record O=C(Nc1cccc(S(=O)(=O)N2CCCC2)c1)c1cnn2c(C(F)(F)F)cc(-c3ccc(Cl)cc3)nc12 . Reported melting point: 252 °C

The recorded melting point for entry CCOP(=O)(CCCCCCOc1ccc(C(=O)O)cc1)OCC equals 215 to 216 °C

Lab note: measured melting point of CC1(C)CCC(C)(C)c2cc3c(cc21)CCc1cc(-c2ccc(C(=O)O)cc2)oc1-3 was 264 to 265 °C

Value of measured melting point for the entry O=c1cc(CBr)c2ccc(O)cc2o1 : 182 to 184 °C

Form field melting point, entry COc1cc(N2CCCCC2)c(Cl)cc1CC(=O)O : 120 to 122 °C

Kindly note the recorded melting point for COc1ccc(-c2coc3cc(OCC4CO4)ccc3c2=O)cc1OC (configuration not stated) , which is 161 to 162 °C

OCCOc1ccc2cc[nH]c2c1 yielded melting point of 74 to 77 °C

Data point: Oc1ccc2c(ccn2Nc2ccncc2F)c1 ; melting point = 70 to 73 °C

Looking up O=C(O)CCc1conc1-c1ccc(-c2ccccc2)cc1 , I see its melting point listed as 169 to 170 °C

For Cn1c(C(F)(F)F)nn(-c2ccc(Cl)c(C(=O)O)c2)c1=O the compound record lists melting point as 223 °C

Per the records, this compound ( COc1ccc(S(=O)(=O)Nc2ccc(F)cc2NC(=O)c2ccccc2)cc1 ) has melting point equal to 153 to 154 °C

Noted for O=[N+]([O-])c1cc(CCl)ccc1OCc1ccccc1 : its melting point reads 60 to 61 °C

Entry c1ccc2c(c1)c1c(N3CCCC3)nc(N3CCCC3)nc1n2CCN1CCOCC1 , melting point reported as 138 to 139 °C

Short answer for CCCc1c(C(=O)O)c(=O)cc(-c2ccc(Cl)cc2)n1C : melting point was 184 to 187 °C

// sample O=C(O)C=CC=Cc1cc(O)c(O)cc1Cl , its melting point was 203 to 206 °C

get_value(item= COc1cc(-c2c(Cl)c(CNC(C)(C)C)nc3sc4c(c23)CCNC4)ccc1OC(C)C , readout=melting point) returns 157 to 158 °C

Lab note: Clc1ccc(-c2cn3cc(Br)ccc3n2)cc1 gave melting point of 210 to 211 °C

Field melting point (entry CC(=O)c1cn(C(=O)OC(C)(C)C)c2ccc(OCc3ccccc3)cc12 ) reads 114 to 116 °C

Lab note: CCOCc1nc2c(N)nc(C)c(C)c2n1CCN gave melting point of 163 to 166 °C

Lab book: melting point of COCNC(=O)c1c(-c2ccc(Cl)cc2)nsc1-c1ccccc1 noted as 119 to 120 °C

The recorded melting point for CCOC(=O)c1c(C)nc2c(cnn2CCOC)c1N is 82 to 85 °C

Entry Cc1c(Nc2c(C#N)cnc3sc(C(=O)N4CCCC4)cc23)ccc2[nH]ccc12 , melting point reported as 256 °C

// sample COC(=O)c1cccc(-c2nnc(-c3ccc(C(C)C)cc3)o2)c1 , its melting point was 74 to 77 °C
